B1: glmS ribozyme (parent)
chain: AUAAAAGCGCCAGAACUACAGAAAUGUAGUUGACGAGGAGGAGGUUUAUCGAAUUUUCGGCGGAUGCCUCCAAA

Variants of: B1
assay.overview: self-cleavage kobs at 2500 uM GlcN6P; higher = faster cleavage; RNA array
experimental.parameters: with glucosamine-6-phosphate
Variants at the floor of the assay were thinned out.
readout.kind: self-cleavage kobs at 2500 uM GlcN6P

[[record]]
sequence_change = "G40C G44A U54A C61A A64G"
observed_measurement = "< 1e-05 s⁻¹"

[[record]]
sequence_change = "C10A A64U"
observed_measurement = "< 1e-05 s⁻¹"

[[record]]
sequence_change = "A6U G35C U56A G60U A64G"
observed_measurement = "< 1e-05 s⁻¹"

[[record]]
sequence_change = "C8A C11U G13A C71U"
observed_measurement = "< 1e-05 s⁻¹"

[[record]]
sequence_change = "G13U C50A A64U U65G"
observed_measurement = "< 1e-05 s⁻¹"

[[record]]
sequence_change = "A42U A52C"
observed_measurement = "< 1e-05 s⁻¹"

[[record]]
sequence_change = "C8G G63A"
observed_measurement = "< 1e-05 s⁻¹"

[[record]]
sequence_change = "C8G A33U"
observed_measurement = "< 1e-05 s⁻¹"

[[record]]
sequence_change = "A15C G29C G60U"
observed_measurement = "< 1e-05 s⁻¹"

[[record]]
sequence_change = "G35C A48G G51U U57G G60U"
observed_measurement = "< 1e-05 s⁻¹"

[[record]]
sequence_change = "A6U A36C G51C"
observed_measurement = "< 1e-05 s⁻¹"

[[record]]
sequence_change = "G40U C68A"
observed_measurement = "< 1e-05 s⁻¹"

[[record]]
sequence_change = "G51A U69G"
observed_measurement = "5.96e-05 s⁻¹"

[[record]]
sequence_change = "A12U C16U C70A"
observed_measurement = "0.000361 s⁻¹"

[[record]]
sequence_change = "C8G A64G U69A C71U"
observed_measurement = "< 1e-05 s⁻¹"

[[record]]
sequence_change = "A14C G43C"
observed_measurement = "< 1e-05 s⁻¹"

[[record]]
sequence_change = "G13C U54G"
observed_measurement = "6.51e-05 s⁻¹"

[[record]]
sequence_change = "A12G A42U U69A"
observed_measurement = "0.000849 s⁻¹"

[[record]]
sequence_change = "U45C A53G"
observed_measurement = "0.00188 s⁻¹"

[[record]]
sequence_change = "U46G G60C A64U"
observed_measurement = "< 1e-05 s⁻¹"

[[record]]
sequence_change = "G9U A12G A14C A53C"
observed_measurement = "< 1e-05 s⁻¹"

[[record]]
sequence_change = "G9U A14C A52C"
observed_measurement = "< 1e-05 s⁻¹"

[[record]]
sequence_change = "A12G A53C U56G"
observed_measurement = "5.07e-05 s⁻¹"

[[record]]
sequence_change = "G40C A64U C68U"
observed_measurement = "< 1e-05 s⁻¹"

[[record]]
sequence_change = "G41C G51U U55G"
observed_measurement = "< 1e-05 s⁻¹"

[[record]]
sequence_change = "G13A U69G"
observed_measurement = "6.99e-05 s⁻¹"

[[record]]
sequence_change = "A14C U45A U57A"
observed_measurement = "3.29e-05 s⁻¹"

[[record]]
sequence_change = "C11U U54G C58A C67G"
observed_measurement = "5.14e-05 s⁻¹"

[[record]]
sequence_change = "A6C C8U C10G A12U G38U"
observed_measurement = "< 1e-05 s⁻¹"

[[record]]
sequence_change = "C11U G60A"
observed_measurement = "< 1e-05 s⁻¹"

[[record]]
sequence_change = "A39C U46G"
observed_measurement = "0.00042 s⁻¹"

